test system: Kasumi-7 cells; assay: Human acute lymphoblastic leukemia cell line Kasumi-7 proliferation suppression test; type: cell-based; details: 72 h, compound 10 μM, 3 days, WST-8, read-out: cell survival rate (% of control) Kasumi-7
viability at 10 µM less than 70% is 1; viability at 10 µM greater than or equal to 70% is 0.

Solved cases (5 shown):
Compound: O=C1CCC(n2cc(-c3cscc3OCc3cccnc3)nn2)C(=O)N1 (centres unmarked)
Classification: 1
--
Compound: O=C1CCC(n2cc(-c3cscc3OCc3ccccc3)nn2)C(=O)N1 (centres unmarked)
Classification: 1
--
Compound: O=C1CCC(n2cc(-c3csc(CO)c3)nn2)C(=O)N1 (centres unmarked)
Classification: 0
--
Compound: COCc1ccc(COc2cscc2-c2cn(C3CCC(=O)NC3=O)nn2)cc1 (centres unmarked)
Classification: 1
--
Compound: COc1cscc1-c1nnn(C2CCC(=O)NC2=O)c1I (centres unmarked)
Classification: 1

### Prompt Does the reported viability at 10 µM of the following compound sit strictly below 70%? COC(=O)c1scc(-c2cn(C3CCC(=O)NC3=O)nn2)c1OC (centres unmarked)
### Response 0

### Prompt Does the reported viability at 10 µM of the following compound sit strictly below 70%? O=C1CCC(n2cc(-c3cscc3OCc3cccc(CN4CCOCC4)c3)nn2)C(=O)N1 (centres unmarked)
### Response 1

### Prompt Does the reported viability at 10 µM of the following compound sit strictly below 70%? O=C1CCC(n2cc(-c3cscc3Br)nn2)C(=O)N1 (centres unmarked)
### Response 1

### Prompt Does the reported viability at 10 µM of the following compound sit strictly below 70%? CN(C)Cc1ccc(COc2cscc2-c2cn(C3CCC(=O)NC3=O)nn2)cc1.Cl (centres unmarked) [compound 46, hydrochloride]
### Response 1

### Prompt Does the reported viability at 10 µM of the following compound sit strictly below 70%? O=C1CCC(N2C(=O)c3ccccc3C2=O)C(=O)N1 (centres unmarked) [Thalidomide, reference compound]
### Response 0

### Prompt Does the reported viability at 10 µM of the following compound sit strictly below 70%? CC(=O)c1ccc(-c2cn(C3CCC(=O)NC3=O)nn2)s1 (centres unmarked)
### Response 0

### Prompt Does the reported viability at 10 µM of the following compound sit strictly below 70%? CCCCOc1cscc1-c1cn(C2CCC(=O)NC2=O)nn1 (centres unmarked)
### Response 0

### Prompt Does the reported viability at 10 µM of the following compound sit strictly below 70%? O=C1CCC(n2cc(-c3ccc(Cl)s3)nn2)C(=O)N1 (centres unmarked)
### Response 0

### Prompt Does the reported viability at 10 µM of the following compound sit strictly below 70%? COc1cc(-c2cn(C3CCC(=O)NC3=O)nn2)cs1 (centres unmarked)
### Response 1

### Prompt Does the reported viability at 10 µM of the following compound sit strictly below 70%? O=C1CCC(n2nnc(-c3ccsc3)c2Cl)C(=O)N1 (centres unmarked)
### Response 0

### Prompt Does the reported viability at 10 µM of the following compound sit strictly below 70%? COc1c(-c2cn(C3CCC(=O)NC3=O)nn2)csc1C (centres unmarked)
### Response 1

### Prompt Does the reported viability at 10 µM of the following compound sit strictly below 70%? O=C1CCC(n2nnc(-c3ccsc3)c2Br)C(=O)N1 (centres unmarked)
### Response 0

### Prompt Does the reported viability at 10 µM of the following compound sit strictly below 70%? O=C1CCC(n2cc(-c3cscc3OCc3ccccn3)nn2)C(=O)N1 (centres unmarked)
### Response 1

### Prompt Does the reported viability at 10 µM of the following compound sit strictly below 70%? Cl.O=C1CCC(n2cc(-c3cscc3OCc3ccc(CN4CCCCC4)cc3)nn2)C(=O)N1 (centres unmarked) [compound 42, hydrochloride]
### Response 1

### Prompt Does the reported viability at 10 µM of the following compound sit strictly below 70%? O=C1CCC(n2cc(-c3cscc3OCc3ccc(CN4CCOCC4)cc3)nn2)C(=O)N1 (centres unmarked)
### Response 1

### Prompt Does the reported viability at 10 µM of the following compound sit strictly below 70%? CC(Oc1cscc1-c1cn(C2CCC(=O)NC2=O)nn1)c1ccccc1 (centres unmarked)
### Response 1

### Prompt Does the reported viability at 10 µM of the following compound sit strictly below 70%? CCCOc1cscc1-c1cn(C2CCC(=O)NC2=O)nn1 (centres unmarked)
### Response 0

### Prompt Does the reported viability at 10 µM of the following compound sit strictly below 70%? O=C1CCC(n2cc(-c3cscc3OC3CCCC3)nn2)C(=O)N1 (centres unmarked)
### Response 0

### Prompt Does the reported viability at 10 µM of the following compound sit strictly below 70%? Cl.O=C1CCC(n2cc(-c3cscc3OCc3ccc(CN4CCCC4)cc3)nn2)C(=O)N1 (centres unmarked) [compound 41, hydrochloride]
### Response 1

### Prompt Does the reported viability at 10 µM of the following compound sit strictly below 70%? O=C1CCC(n2cc(-c3cccs3)nn2)C(=O)N1 (centres unmarked)
### Response 0

----------
system: human peripheral blood mononuclear cells (PBMC); assay: Cytotoxicity test using human peripheral blood mononuclear cells (PBMC); assay type: cell-based; conditions: compound 10 μg/mL, LPS, 24 hr, WST-1 or WST-8
For each entry below, report its cell survival rate (% of control) PBMC value.

Compound: O=C1CCC(n2cc(-c3cscc3OCC3CCCC3)nn2)C(=O)N1 (centres unmarked)
cell survival rate (% of control) PBMC: 104 % of control

// each compound listed below needs its cell survival rate (% of control) PBMC
1. O=C1CCC(n2cc(-c3cc(Br)sc3Br)nn2)C(=O)N1 (centres unmarked)
2. COc1c(-c2cn(C3CCC(=O)NC3=O)nn2)csc1Cl (centres unmarked)

### Response
["132 % of control", "132 % of control"]

// each compound listed below needs its cell survival rate (% of control) PBMC
1. O=C1CCC(n2cc(-c3cscc3OCc3ccccc3)nn2)C(=O)N1 (centres unmarked)
2. O=C1CCC(n2cc(-c3cscc3OCc3ccc(CN4CCOCC4)cc3)nn2)C(=O)N1 (centres unmarked)

### Response
1: 66 % of control; 2: 59 % of control

----------
For each entry below, report its inhibition at 10 µg/mL value.
test system: TNF-α production; experiment: Human TNF-α production suppression test (LPS-stimulated peripheral blood mononuclear cells, ELISA); type: cell-based; conditions: PBMC, compound 10 μg/mL, 24 hr, control well = 100, read-out: TNF-α production suppressive rate (%)
One number for each entry, in %.

Completed entries (count: 5):
Compound: O=C1CCC(n2cc(-c3ccc(Cl)s3)nn2)C(=O)N1 (stereo not drawn) [compound 11]
inhibition at 10 µg/mL [%]: 81
--
Compound: CN(C)Cc1ccc(COc2cscc2-c2cn(C3CCC(=O)NC3=O)nn2)cc1.Cl (stereo not drawn) [compound 46, hydrochloride]
inhibition at 10 µg/mL [%]: 80
--
Compound: O=C1CCC(n2cc(-c3ccc(Br)s3)nn2)C(=O)N1 (stereo not drawn) [compound 12]
inhibition at 10 µg/mL [%]: 84
--
Compound: COc1cc(-c2cn(C3CCC(=O)NC3=O)nn2)cs1 (stereo not drawn) [compound 20]
inhibition at 10 µg/mL [%]: 87
--
Compound: O=C1CCC(n2nnc(-c3ccsc3)c2Cl)C(=O)N1 (stereo not drawn) [compound 4]
inhibition at 10 µg/mL [%]: 67

// each compound listed below needs its inhibition at 10 µg/mL
1. O=C1CCC(n2cc(-c3cccs3)nn2)C(=O)N1 (stereo not drawn) [compound 3]
2. CCOc1cc(-c2cn(C3CCC(=O)NC3=O)nn2)cs1 (stereo not drawn) [compound 24]
3. COc1c(-c2cn(C3CCC(=O)NC3=O)nn2)csc1Br (stereo not drawn) [compound 23]
4. O=C1CCC(n2nnc(-c3ccsc3)c2Br)C(=O)N1 (stereo not drawn) [compound 48]
5. O=C1CCC(n2cc(-c3cscc3Br)nn2)C(=O)N1 (stereo not drawn) [compound 1]
6. O=C1CCC(n2cc(-c3cscc3OCc3ccccc3CN3CCOCC3)nn2)C(=O)N1 (stereo not drawn) [compound 40]
7. O=C1CCC(n2cc(-c3cscc3Cl)nn2)C(=O)N1 (stereo not drawn) [compound 14]
8. O=C1CCC(n2cc(-c3cscc3OCc3ccccc3)nn2)C(=O)N1 (stereo not drawn) [compound 32]

### Response
59
75
62
51
90
86
75
100

----------
tested on: Kasumi-7 cells; assay: Human acute lymphoblastic leukemia cell line Kasumi-7 proliferation suppression test; type: cell-based; conditions: 72 h, compound 10 μM, 3 days, WST-8, read-out: cell survival rate (% of control) Kasumi-7
For each entry below, report its viability at 10 µM value.
Answers are plain numbers, in %.

Compound: Cc1cc(-c2cn(C3CCC(=O)NC3=O)nn2)cs1 (stereo not shown) [compound 6]
Readout: viability at 10 µM
Measured number: 72
//
Compound: O=C1CCC(n2cc(-c3ccsc3)nn2)C(=O)N1 (stereo not shown) [compound 2]
Readout: viability at 10 µM
Measured number: 68
//
Compound: O=C1CCC(n2cc(-c3ccc(Br)s3)nn2)C(=O)N1 (stereo not shown) [compound 12]
Readout: viability at 10 µM
Measured number: 89
//
Compound: O=C1CCC(n2cc(-c3cc(Br)sc3Br)nn2)C(=O)N1 (stereo not shown) [compound 13]
Readout: viability at 10 µM
Measured number: 93
//
Compound: O=C1CCC(n2cc(-c3cscc3OCC3CCCC3)nn2)C(=O)N1 (stereo not shown) [compound 29]
Readout: viability at 10 µM
Measured number: 84
//
Compound: CC(C)Oc1cscc1-c1cn(C2CCC(=O)NC2=O)nn1 (stereo not shown) [compound 26]
Readout: viability at 10 µM
Measured number: 50
//
Compound: COc1ccc(COc2cscc2-c2cn(C3CCC(=O)NC3=O)nn2)cc1 (stereo not shown) [compound 31]
Readout: viability at 10 µM
Measured number: 43
//
Compound: COc1cscc1-c1cn(C2CCC(=O)NC2=O)nn1 (stereo not shown) [compound 19]
Readout: viability at 10 µM
Measured number: 24
//
Compound: CCOc1cscc1-c1cn(C2CCC(=O)NC2=O)nn1 (stereo not shown) [compound 17]
Readout: viability at 10 µM
Measured number: 48
//
Compound: COc1sccc1-c1cn(C2CCC(=O)NC2=O)nn1 (stereo not shown) [compound 18]
Readout: viability at 10 µM
Measured number: 52

// each compound listed below needs its viability at 10 µM
1. O=C1CCC(n2cc(-c3scc4c3OCCO4)nn2)C(=O)N1 (stereo not shown) [compound 10]
2. Cc1ccc(-c2cn(C3CCC(=O)NC3=O)nn2)s1 (stereo not shown) [compound 5]
3. O=C1CCC(n2cc(-c3cscc3OCC3CCCCC3)nn2)C(=O)N1 (stereo not shown) [compound 30]

### Response
1: 72; 2: 72; 3: 62
